Tested on: HEK-293T
Assay: Multiplex assay against HEK293T
Assay type: toxicity, cell-based
Conditions: human, 24 h, 10 µM, compound concentration 10 uM, replicate 2
Criterion: Population Tubulin-Different-Phenotype (%) strictly under 50%. Met: 1 (yes). Not met: 0 (no).

| compound | classification |
| --- | --- |
| CC(C)(C)c1ccc(S(=O)(=O)Nc2ccc(Cl)cc2C(=O)c2cc[n+]([O-])cc2)cc1 | 1 (yes) |
| CCCn1c(=O)c2[nH]c(C3CCCC3)nc2n(CCC)c1=O | 1 (yes) |
| CCOc1c2c(c(OCC)c3ncccc13)CN(c1ccc(CS(=O)(=O)NC(=O)Cc3ccccc3OC)cc1C)C2=O | 1 (yes) |
| Cc1ccc(/C(=C\CN2CCCC2)c2ccccn2)cc1 | 1 (yes) |
| O=C1COc2nccc(-c3ccccc3F)c2CN1Cc1cc(C(F)(F)F)cc(C(F)(F)F)c1 | 1 (yes) |
| Oc1c(CN2CCN(c3ccccn3)CC2)cc(Cl)c2cccnc12 | 1 (yes) |
| CC1(COc2ccc3c(c2)ncn3-c2ccc3cccc(N4CCC(N)CC4)c3n2)COC1 | 0 (no) |
| COc1c(C)cc(NC(=O)c2nn(Cc3ccc(F)cc3)c3c2CN(C(=O)c2ccc[nH]2)C[C@]3(C)C(N)=O)cc1C | 0 (no) |
| CNC[C@H](O)c1ccc(O)c(O)c1 [EPINEPHRINE] | 1 (yes) |
| Cc1nc2ccc(Oc3ccc(F)cc3)cc2c(=O)n1C[C@H]1CCCN(C(C)C)C1.Cl | 0 (no) |
| CSc1ccccc1N1CCN(CCCCCC(=O)NC2CCCc3ccccc32)CC1.Cl (stereo not drawn) | 1 (yes) |
| O=S(=O)(c1ccccc1)c1cnc2c(N3CCNCC3)cccc2c1 [INTEPIRDINE] | 1 (yes) |
| N#Cc1c(N)nc(SCc2csc(-c3ccc(Cl)cc3)n2)c(C#N)c1-c1ccc(OCCO)cc1 | 0 (no) |
